These entries and their values trace back to ChEMBL document CHEMBL4177743.

- Species on record: Homo sapiens
- Method summary: Selectivity ratio of IC50 for recombinant FDPS (unknown origin) to IC50 for recombinant GGDPS (unknown origin)
# Ratio IC50 listing for each entry below
Reply: number alone, nothing else.

Examples with their reported Ratio IC50 follow.
Molecule	Ratio IC50
CC(C)=CCC/C(C)=C/Cn1cc(CC(C)(P(=O)(O)O)P(=O)(O)O)nn1	3.5
CCC(Cc1cn(CC=C(C)CCC=C(C)C)nn1)(P(=O)(O)O)P(=O)(O)O	16
CC(C)=CCCC(C)=CCn1cc(CC(C)(P(=O)(O)O)P(=O)(O)O)nn1 (mixture of isomers)	49
CC(C)=CCC/C(C)=C/CCn1cc(CC(C)(P(=O)(O)O)P(=O)(O)O)nn1	345
CC(C)=CCC/C(C)=C\CCn1cc(CC(C)(P(=O)(O)O)P(=O)(O)O)nn1	693

Now look at this entry.
get_value(item= CC(C)=CCC/C(C)=C/CCn1cc(CC(C)(P(=O)(O)O)P(=O)(O)O)nn1 (mixture of isomers) , readout=Ratio IC50) returns 241

###

- Test system: Geranylgeranyl pyrophosphate synthase (Homo sapiens, UniProt O95749)
- Sequence (O95749 whole entry): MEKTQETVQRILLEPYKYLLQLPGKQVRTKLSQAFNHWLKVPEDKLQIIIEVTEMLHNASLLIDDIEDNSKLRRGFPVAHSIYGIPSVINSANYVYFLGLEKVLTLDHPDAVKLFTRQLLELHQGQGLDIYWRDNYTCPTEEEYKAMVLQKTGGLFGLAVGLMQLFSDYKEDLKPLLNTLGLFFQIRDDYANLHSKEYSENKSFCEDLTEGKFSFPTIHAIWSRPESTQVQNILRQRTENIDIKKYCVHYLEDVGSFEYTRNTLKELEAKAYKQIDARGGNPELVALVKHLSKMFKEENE
- Method summary: Inhibition of recombinant GGDPS (unknown origin) using FPP as substrate pretreated for 10 mins followed by substrate addition measured after 30 mins in presence of [14C]-IPP by liquid scintillation counting method
Attribute measured: IC50 (nM)
Entry rule: numbers only, all in nM.

Example results:
Compound	Test system	Attribute measured	Measured value
CCC(Cc1cn(CC=C(C)CCC=C(C)C)nn1)(P(=O)(O)O)P(=O)(O)O	Geranylgeranyl pyrophosphate synthase (Homo sapiens, UniProt O95749)	IC50	5850
CC(C)=CCCC(C)=CCn1cc(CC(C)(P(=O)(O)O)P(=O)(O)O)nn1 (mixture of isomers)	Geranylgeranyl pyrophosphate synthase (Homo sapiens, UniProt O95749)	IC50	1270
CC(C)=CCC/C(C)=C/CCn1cc(CC(C)(P(=O)(O)O)P(=O)(O)O)nn1 (mixture of isomers)	Geranylgeranyl pyrophosphate synthase (Homo sapiens, UniProt O95749)	IC50	100
CC(C)=CCC/C(C)=C\Cn1cc(CC(C)(P(=O)(O)O)P(=O)(O)O)nn1	Geranylgeranyl pyrophosphate synthase (Homo sapiens, UniProt O95749)	IC50	920

# evaluate next
Notebook: CC(C)=CCC/C(C)=C/Cn1cc(CC(C)(P(=O)(O)O)P(=O)(O)O)nn1 , IC50 read as 20500

###

- Test system: Geranylgeranyl pyrophosphate synthase (Homo sapiens) (UniProt O95749)
- Method summary: Inhibition of GGDPS in human […] cells assessed as decrease in Rab GTPase geranylgeranylation by measuring accumulation of intracellular lambda light chain after 48 hrs by ELISA
- Assay type: cell-based
Please respond with rule met when measured MEC is strictly beneath 0.1 µM, and with rule not met in all other cases.

Worked set:
Compound	Cat
CC(C)=CCC/C(C)=C\CCn1cc(CC(C)(P(=O)(O)O)P(=O)(O)O)nn1	rule met
CCC(Cc1cn(CC=C(C)CCC=C(C)C)nn1)(P(=O)(O)O)P(=O)(O)O	rule not met
CC(C)=CCC/C(C)=C/CCn1cc(CC(C)(P(=O)(O)O)P(=O)(O)O)nn1	rule met
CC(C)=CCC/C(C)=C/Cn1cc(CC(C)(P(=O)(O)O)P(=O)(O)O)nn1	rule not met

// next entry
Take the compound CC(C)=CCC/C(C)=C/CCn1cc(CC(C)(P(=O)(O)O)P(=O)(O)O)nn1 (mixture of isomers) and say whether its MEC is less than 0.1 µM.
rule met
